- Measured on: CA XII (Homo sapiens)
- Construct: five isoforms of human recombinant catalytic domains of carbonic anhydrases (CAs); made in house
- Assay notes: Isothermal titration calorimetry (ITC), CA XII
- Type: binding
Measure: pKd
Interpret pKd as the negative base-10 log of the concentration measured in mol/L.

pKd reading for NS(=O)(=O)c1ccc2c(c1)S(=O)(=O)NC2=O [Compound 2] : 7.00

###

# maps each entry to its Kd
- Measured on: CA I (Homo sapiens, UniProt P00915)
- Construct: five isoforms of human recombinant catalytic domains of carbonic anhydrases (CAs); made in house
- Sequence (P00915 4-261 limits assumed): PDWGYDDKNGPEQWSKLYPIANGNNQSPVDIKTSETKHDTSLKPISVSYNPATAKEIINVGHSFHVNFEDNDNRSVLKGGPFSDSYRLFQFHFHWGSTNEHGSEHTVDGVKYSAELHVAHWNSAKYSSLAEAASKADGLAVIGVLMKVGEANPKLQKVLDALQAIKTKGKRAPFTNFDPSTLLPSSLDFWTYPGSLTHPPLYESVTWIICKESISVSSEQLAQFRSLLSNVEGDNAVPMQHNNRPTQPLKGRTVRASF
- Assay notes: Isothermal titration calorimetry (ITC), CA I
- Type: binding
- Condition parameters: ITC, 37°C, pH 7.0; read-out: Dissociation constants Kd, CA I

{"columns": ["Compound", "Result"],
 "data": [
  ["CC#CCN1C(=O)c2ccc(S(N)(=O)=O)cc2S1(=O)=O", "28 nM"]
]}

Measured Kd, O=C1NS(=O)(=O)c2ccccc21 [Compound 1, saccharin, reference compound] : > 100000 nM

Lab book: Kd of NS(=O)(=O)c1ccc2c(c1)S(=O)(=O)N(CCc1ccccc1)C2=O noted as < 20 nM

###

- Measured on: CA XII (Homo sapiens, UniProt O43570)
- Construct: five isoforms of human recombinant catalytic domains of carbonic anhydrases (CAs); made in house
- Sequence (O43570 30-289 limits assumed): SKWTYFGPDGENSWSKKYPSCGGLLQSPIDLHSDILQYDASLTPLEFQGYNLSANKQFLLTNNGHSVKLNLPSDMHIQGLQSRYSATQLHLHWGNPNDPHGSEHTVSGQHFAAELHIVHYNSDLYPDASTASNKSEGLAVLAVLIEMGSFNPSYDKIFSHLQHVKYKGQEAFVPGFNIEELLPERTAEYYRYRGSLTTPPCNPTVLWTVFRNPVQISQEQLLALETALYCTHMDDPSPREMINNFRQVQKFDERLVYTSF
- Assay notes: Fluorescent thermal shift assay (FTSA), CA XII
- Format: binding
- Condition parameters: 37°C, pH 7.0, read-out: Dissociation constants Kd, CA XII
Measure: pKd
Quick note: pKd values are minus log10 of concentrations in mol/L.

{"columns": ["Smiles str", "pKd"],
 "data": [
  ["NS(=O)(=O)c1ccc2c(c1)S(=O)(=O)N(CCc1ccccc1)C2=O", 7.60]
]}

Summary for this compound, NS(=O)(=O)c1ccc2c(c1)S(=O)(=O)NC2=O : pKd is 6.66

Field pKd (entry CC#CCN1C(=O)c2ccc(S(N)(=O)=O)cc2S1(=O)=O ) reads 6.54

###

- Measured on: CA I (Homo sapiens)
- Construct: five isoforms of human recombinant catalytic domains of carbonic anhydrases (CAs); made in house
- Assay notes: Fluorescent thermal shift assay (FTSA), CA I
- Format: binding
- Condition parameters: FTSA; read-out: affinity (Kd), CA I
Measure: Kd
Answer shape: numeric part, then the unit.

Note to self: Kd recorded for NS(=O)(=O)c1ccc2c(c1)S(=O)(=O)N(CCc1ccccc1)C2=O was 0.33 nM

###

In this section, each of the molecules is paired with its reported Kd.
- Measured on: CA XIII (Homo sapiens)
- Construct: five isoforms of human recombinant catalytic domains of carbonic anhydrases (CAs); made in house
- Assay notes: Isothermal titration calorimetry (ITC), CA XIII
- Type: binding
- Condition parameters: 37°C, pH 7.0, read-out: Dissociation constants Kd, CA XIII

Answered cases to consult:
{"columns": ["Molecule", "Measured on", "Kd"],
 "data": [
  ["NS(=O)(=O)c1ccc2c(c1)S(=O)(=O)N(CCc1ccccc1)C2=O", "CA XIII (Homo sapiens)", "< 0.02 µM"],
  ["O=C1NS(=O)(=O)c2ccccc21 [Compound 1, saccharin, reference compound]", "CA XIII (Homo sapiens)", "> 100 µM"],
  ["NS(=O)(=O)c1ccc2c(c1)S(=O)(=O)NC2=O", "CA XIII (Homo sapiens)", "0.12 µM"]
]}

CC#CCN1C(=O)c2ccc(S(N)(=O)=O)cc2S1(=O)=O yielded Kd of 0.047 µM

###

- Measured on: CA XIII (Homo sapiens, UniProt Q8N1Q1)
- Construct: five isoforms of human recombinant catalytic domains of carbonic anhydrases (CAs); made in house
- Sequence (Q8N1Q1 4-261 limits assumed): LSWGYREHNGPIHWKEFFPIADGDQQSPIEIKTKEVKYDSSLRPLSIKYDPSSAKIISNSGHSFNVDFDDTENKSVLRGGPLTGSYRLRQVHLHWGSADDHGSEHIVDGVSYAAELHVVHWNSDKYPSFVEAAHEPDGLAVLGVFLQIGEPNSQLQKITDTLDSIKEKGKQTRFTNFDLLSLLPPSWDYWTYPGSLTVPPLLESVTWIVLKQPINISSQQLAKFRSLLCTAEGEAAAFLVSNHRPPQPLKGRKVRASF
- Assay notes: Isothermal titration calorimetry (ITC), CA XIII
- Type: binding
- Condition parameters: all tested CAs, read-out: Kd, CA XIII
pKd: −log10 of the molar value.
Measure: pKd

// pKd lookup, molecule = O=C1NS(=O)(=O)c2ccccc21 [Compound 1, saccharin, reference compound] , result: < 4.00

###

- Measured on: CA VII (Homo sapiens, UniProt P43166)
- Construct: five isoforms of human recombinant catalytic domains of carbonic anhydrases (CAs); made in house
- Sequence (P43166 5-262 limits assumed): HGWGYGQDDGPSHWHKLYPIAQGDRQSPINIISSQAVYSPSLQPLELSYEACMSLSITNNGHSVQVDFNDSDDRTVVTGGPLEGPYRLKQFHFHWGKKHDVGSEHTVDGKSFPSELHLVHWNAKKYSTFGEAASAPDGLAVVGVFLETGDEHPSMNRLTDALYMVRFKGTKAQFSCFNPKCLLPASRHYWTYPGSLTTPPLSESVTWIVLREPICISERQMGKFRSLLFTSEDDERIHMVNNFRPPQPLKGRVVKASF
- Assay notes: Isothermal titration calorimetry (ITC), CA VII
- Type: binding
- Condition parameters: all tested CAs, read-out: Kd, CA VII
pKd: −log10 of the molar value.
Measure: pKd

The compound listed as O=C1NS(=O)(=O)c2ccccc21 [Compound 1, saccharin, reference compound] has a reported pKd of < 4.00

###

- Measured on: CA VII (Homo sapiens, UniProt P43166)
- Construct: five isoforms of human recombinant catalytic domains of carbonic anhydrases (CAs); made in house
- Assay notes: Fluorescent thermal shift assay (FTSA), CA VII
- Assay type: binding
- Condition parameters: FTSA, 37°C, pH 7.0; read-out: Dissociation constants Kd, CA VII
Kd values for the molecules below.
Please give a number only; it is taken to be in µM.

{"columns": ["Smiles str", "Kd (µM)"],
 "data": [
  ["CC#CCN1C(=O)c2ccc(S(N)(=O)=O)cc2S1(=O)=O", 0.11]
]}

As a next step, examine the molecule that follows.
Record NS(=O)(=O)c1ccc2c(c1)S(=O)(=O)N(CCc1ccccc1)C2=O . Reported Kd: 0.0043

###

- Measured on: CA XII (Homo sapiens, UniProt O43570)
- Construct: five isoforms of human recombinant catalytic domains of carbonic anhydrases (CAs); made in house
- Assay notes: Isothermal titration calorimetry (ITC), CA XII
- Format: binding
- Condition parameters: ITC, all tested CAs; read-out: Kd, CA XII
pKd: −log10 of the molar value.
Measure: pKd

In plain terms, O=C1NS(=O)(=O)c2ccccc21 [Compound 1, saccharin, reference compound] has a documented pKd of < 4.00

###

- Measured on: CA I (Homo sapiens)
- Construct: five isoforms of human recombinant catalytic domains of carbonic anhydrases (CAs); made in house
- Assay notes: Fluorescent thermal shift assay (FTSA), CA I
- Assay type: binding
- Condition parameters: FTSA, 37°C, pH 7.0; read-out: Dissociation constants Kd, CA I
Measure: pKd
Remember, pKd is on a log scale: it is -log10 of the molar concentration.

Entry CC#CCN1C(=O)c2ccc(S(N)(=O)=O)cc2S1(=O)=O [Compound 3] , pKd reported as 7.74

###

- Measured on: CA II (Homo sapiens, UniProt P00918)
- Construct: five isoforms of human recombinant catalytic domains of carbonic anhydrases (CAs); made in house
- Assay notes: Isothermal titration calorimetry (ITC), CA II
- Assay type: binding
Measure: Kd (nM)
Return type: number; implicit unit nM.

The recorded Kd for entry NS(=O)(=O)c1ccc2c(c1)S(=O)(=O)NC2=O [Compound 2] equals 290

###

- Measured on: CA XIII (Homo sapiens, UniProt Q8N1Q1)
- Construct: five isoforms of human recombinant catalytic domains of carbonic anhydrases (CAs); made in house
- Assay notes: Fluorescent thermal shift assay (FTSA), CA XIII
- Assay type: binding
- Condition parameters: read-out: Kd, CA XIII
Measure: pKd
Worth noting: pKd values are minus log10 of concentrations stated in mol/L.

get_value(item= O=C1NS(=O)(=O)c2ccccc21 [Compound 1, saccharin, reference compound] , readout=pKd) returns 2.70

###

- Measured on: CA I (Homo sapiens, UniProt P00915)
- Construct: five isoforms of human recombinant catalytic domains of carbonic anhydrases (CAs); made in house
- Assay notes: Isothermal titration calorimetry (ITC), CA I
- Assay type: binding
Measure: pKd
Just so you know, pKd here is -log10 of the concentration in molar units; reply with that number alone.

Field pKd (entry NS(=O)(=O)c1ccc2c(c1)S(=O)(=O)NC2=O ) reads 5.85

###

- Measured on: CA I (Homo sapiens, UniProt P00915)
- Construct: five isoforms of human recombinant catalytic domains of carbonic anhydrases (CAs); made in house
- Assay notes: Fluorescent thermal shift assay (FTSA), CA I
- Format: binding
- Condition parameters: FTSA; no shift up to 7.5 mM; read-out: Kd, CA I
Measure: Kd

For record O=C1NS(=O)(=O)c2ccccc21 [Compound 1, saccharin, reference compound] the listed Kd is > 10 mM
